- TARGET_OF_ASSAY: M1 muscarinic receptor (Homo sapiens)
- Construct: expressed in transfected cells; host or cells: CHO (M1-CHO)
- Sequence (P11229 whole entry): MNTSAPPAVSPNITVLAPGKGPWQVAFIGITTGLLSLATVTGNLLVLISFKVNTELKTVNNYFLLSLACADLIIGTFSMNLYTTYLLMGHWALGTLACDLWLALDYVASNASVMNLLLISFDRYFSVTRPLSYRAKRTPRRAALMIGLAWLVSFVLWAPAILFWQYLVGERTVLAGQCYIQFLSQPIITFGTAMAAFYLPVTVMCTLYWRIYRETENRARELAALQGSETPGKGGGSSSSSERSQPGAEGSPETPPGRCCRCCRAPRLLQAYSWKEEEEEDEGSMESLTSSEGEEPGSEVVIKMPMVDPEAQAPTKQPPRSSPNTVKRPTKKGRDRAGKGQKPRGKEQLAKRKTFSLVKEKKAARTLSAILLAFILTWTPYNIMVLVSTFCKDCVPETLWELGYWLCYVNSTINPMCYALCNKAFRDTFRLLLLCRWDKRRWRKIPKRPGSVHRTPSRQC
- PROTOCOL_NOTES: Functional mobilization of intracellular calcium (FLIPR) in M1-CHO cells
- Format: cell-based
- CONDITIONS: Table 4; 100% efficacy is the maximum response obtained with the Carbachol control
- Description: Functional Mobilization of Intracellular Calcium to Determine Muscarinic Receptor Activity: […] Compounds are prepared at a 2× fold concentration in a 96-well plate (round bottom, Costar Corning cat# 3656), by reconstituting the pre-spotted compounds in bath 1 containing 1 mM probenecid. […] In both assay modes, the fluorescence is recorded for 60 sec (excitation wavelength is […] and emission wavelength 540 nm) using the FLIPR 3 instrument. […]
QUANTITY_NAME: Emax

Emax for "CN(C)C(=O)N1CC2(CCN(C3CCN(C(=O)CC#N)CC3)CC2)c2cc(F)ccc21" ?
< 25%

One more molecule: CCOC(=O)N1C2CCC1CC(N1CCC3(CC1)CN(C(C)=O)c1c(C(F)(F)F)cccc13)C2 (centres unmarked)
< 25%

One more molecule: CCOC(=O)N1C2CCC1CC(N1CCC3(CC1)CN(C(C)=O)c1ccc(C(F)(F)F)cc13)C2 (centres unmarked)
25 to 100%

One more molecule: Cc1ccc2c(c1)C(=O)CC21CCN(CC2C[C@H]3C=C[C@H]2C3)CC1 (some centres unmarked)
25 to 100%

New cases:
Emax for CC#CCOC(=O)N1C2CCC1CC(N1CCC3(CC1)CN(C(C)=O)c1ccccc13)C2 (centres unmarked) ?
25 to 100%

One more molecule: "COc1ccc(N2CCC(N3CCC4(CC3)CN(C(=O)N(C)C)c3ccc(F)cc34)CC2)nn1"
25 to 100%

One more molecule: "COCCN1CC2(CCN(C3CCN(C(=O)OCCF)CC3)CC2)c2cc(F)ccc21"
25 to 100%

###

- TARGET_OF_ASSAY: M4 muscarinic receptor (Homo sapiens, UniProt P08173)
- Construct: expressed in transfected cells; host or cells: CHO (M4-CHO)
- Sequence (P08173 1-479): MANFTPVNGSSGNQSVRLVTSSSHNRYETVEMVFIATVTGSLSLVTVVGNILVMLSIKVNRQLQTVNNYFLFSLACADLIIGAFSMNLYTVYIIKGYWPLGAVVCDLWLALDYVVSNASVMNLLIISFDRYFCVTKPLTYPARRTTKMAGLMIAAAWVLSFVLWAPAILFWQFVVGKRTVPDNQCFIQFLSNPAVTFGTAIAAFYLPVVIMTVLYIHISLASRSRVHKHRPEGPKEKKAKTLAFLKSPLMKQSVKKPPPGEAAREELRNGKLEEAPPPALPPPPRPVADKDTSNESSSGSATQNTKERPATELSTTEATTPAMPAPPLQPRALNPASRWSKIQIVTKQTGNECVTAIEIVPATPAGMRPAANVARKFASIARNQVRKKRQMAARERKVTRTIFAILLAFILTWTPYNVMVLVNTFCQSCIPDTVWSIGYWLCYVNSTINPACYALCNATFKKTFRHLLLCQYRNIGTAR
- PROTOCOL_NOTES: Functional mobilization of intracellular calcium (FLIPR) in M4-CHO cells
- Type: cell-based
- CONDITIONS: Table 4; 100% efficacy is the maximum response obtained with the Carbachol control
Some compounds, each annotated with its measured Emax.

Emax for CN(C)C(=O)N1CC2(CCN(C3CCNCC3)CC2)c2cc(F)ccc21 [compound 685] ?
25 to 100%

One more compound: CC(C)C(=O)N[C@@H]1CC2(CCN(C[C@H]3C[C@H]4CC[C@H]3C4)CC2)c2ccccc21 [compound 432]
< 25%

One more compound: CCOC(=O)N1CCC(N2CCC3(CC2)CN(c2nccs2)c2ccc(F)cc23)CC1 [compound 879]
25 to 100%

New cases:
Emax for C#CCCOC(=O)N1C2CCC1CC(N1CCC3(CC1)CN(C(C)=O)c1ccccc13)C2 (stereo not shown) [compound 747] ?
25 to 100%
